Reference source: patent US8580815B2

# system: Abl T315I (Homo sapiens (Human), UniProt P00519, T315I)
# test summary: Reaction Biology Corp. kinase assay, mutated Abl T315I
# Type: biochemical
# applied conditions: 10 μM; Reaction Biology Corp.; read-out: % inhibition of kinase activity, Abl T315I (category)
quantity name: inhibition at 10 µM

See these solved cases before continuing.
COC(=O)c1cc2cc(NC(=O)c3ccccc3OC(F)(F)F)cnc2[nH]1 [ND0078] = < 10%
COC(=O)c1cc2cc(NCc3ccc(S(N)(=O)=O)cc3)cnc2[nH]1 [ND0101] = < 10%
COC(=O)c1cc2cc(NCc3c(C)cccc3Cl)cnc2[nH]1 [ND0089] = < 10%
COC(=O)c1cc2cc(NCc3c(Cl)cccc3Cl)cnc2[nH]1 [ND0087] = 10 to 50%
COC(=O)c1cc2cc(NC(=O)c3cc(C)n[nH]3)cnc2[nH]1 [ND0085] = < 10%

Would you kindly look at the next entry?
// lookup inhibition at 10 µM for COC(=O)c1cc2cc(NCc3ccccc3C(F)(F)F)cnc2[nH]1 [ND0091] < 10%
